Parameter: RA (Relative Affinity). Scope: all listed entries.
# system_name: HLA-B*0702 (Homo sapiens)
# Construct: expressed in transfected cells; host or cells: human T2-B7 cells (T2 transfected with HLA-B*0702)
# test_summary: Measurement of peptide relative affinity to HLA-B*0702 (surface expression on T2-B7 cells)
# Format: cell-based
# applied_conditions: 37°C 16 hours, peptide 100 μM to 0.1 μM, ME-1 mAb staining, RA = concentration inducing 20% of HLA-B*0702 expression / that of reference R10V, mean ± SD, at least three experiments, ≥ 10 = 10 or not measurable, SD
quantity_name: RA (Relative Affinity)

>>> df
                           sequence_content           quantity_name  numeric_value
0  APRTKAEML [MAGE-A1_121 A1R3, optimized MAGE-A1_121, alanine at position 1 and arginine at position 3]  RA (Relative Affinity)           2.36
1  APRSLGLEL [Hsp70_397 R3L9, optimized Hsp70_397, arginine at position 3 and leucine at C-terminal position]  RA (Relative Affinity)              1
2  APRCRAVRSL [TERT4, TERT derived peptide with complete consensus motif A1P2R3L9, control, dominant peptide]  RA (Relative Affinity)           0.74
3  APRRLVQLL [TERT444A1, optimized TERT444, alanine at position 1]  RA (Relative Affinity)            1.4
